Values compiled from patent US5908842A.

# TARGET_SYSTEM: Human Inducible Nitric Oxide Synthase (Homo sapiens, UniProt P35228)
# TEST_METHOD_NOTES: Inhibition of human inducible nitric oxide synthase (formation of L-[3H]citrulline from L-[3H]arginine)
# Assay type: biochemical
# ASSAY_SETUP: 50 μM inhibitor; 1 μM L-Arg, pH 7.5, room temperature, 30 minutes
# Description: J Lowenstein and S. H. Snyder in Methods in Enzymology, Vol. 233, L. Packer, ed., Academic Press, NY, 1994, Ch.26, pp. 264-269. […] NOS activity is measured as the formation of L-[2,3,4,5-^3 H]Citrullinefrom L-[2,3,4,5-^3 H]Arginine. […] Reaction products are separated by passing through a cation exchange resin and quantitated as cpm by scintillation counting. […]
Measured inhibition at 50 µM accompanies every entry in the list below.
Quote the value and follow it with the unit of measurement.

STRUCTURE_NOTATION: Cc1ccnc(NC(=S)NC(C)C)c1
DATA_VALUE: 100%
//
STRUCTURE_NOTATION: Cc1ccc(NC(=O)Nc2cc(C)ccn2)cc1
DATA_VALUE: 54%
//
STRUCTURE_NOTATION: C=CCNC(=S)Nc1ccc(C(F)(F)F)cn1
DATA_VALUE: 86%
//
STRUCTURE_NOTATION: Cc1ccnc(NC(=O)NC(=O)c2ccccc2)c1
DATA_VALUE: 96%
//
STRUCTURE_NOTATION: CCN(CC)S(=O)(=O)NC(=O)Nc1ccccn1
DATA_VALUE: 55%
//
STRUCTURE_NOTATION: S=C(Nc1ccc(Br)cc1)Nc1ccccn1
DATA_VALUE: 55%

Note: attention shifts to another entry.
Recorded inhibition at 50 µM for `C=CCNC(=S)Nc1cc(C)cc(C)n1` , please?
51%
